condition_set: 298.15 K; 101.33 kPa; Liquid; Vibrating tube method
± gives the expanded uncertainty stated by the source.
readout_label: mass density

Query :: Look up and state reported mass density for CC[NH+](CC)CC.O=S(=O)([O-])O [triethylammonium hydrogen sulfate]
Result :: 1142.89 ± 0.45 kg/m3

Query :: Query mass density for CC(=O)[O-].CC[NH2+]CC [diethylammonium acetate]
Result :: 1021.41 ± 0.32 kg/m3

Query :: Give the reported mass density for this compound. CC[NH2+]CC.O=S(=O)([O-])O [diethylammonium hydrogen sulfate]
Result :: 1283.95 ± 0.61 kg/m3

Query :: Input CC(=O)O.CCN(CC)CC [triethylammonium acetate] , output reported mass density.
Result :: 1015.86 ± 0.32 kg/m3

Query :: Please report the measured mass density for CN1CCCC1=O
Result :: 1025.9 ± 0.31 kg/m3
